assay: Human pharmacokinetics, dose-ranging study; format: in vivo; settings: human, plasma, po, 350 mg, oral capsule; 350 mg, 7 per week; Day 1; fasted; read-out: AUC0-24
measurement.type: AUC(0-t)

Provide only the value of recorded AUC(0-t) for COc1cc(OC)cc(N2CCN(C(=O)Nc3nc4cc(F)ccc4nc3OC)CC2)c1 [RX-5902] 4820 ng·h/mL

---

assay: Human pharmacokinetics, dose-ranging study; type: in vivo; conditions: human, plasma, po, 50 mg, oral capsule; 50 mg, 1 per week; Day 1; fasted; read-out: AUC0-24
measurement.type: AUC(0-t)
Answer with the value and then the unit.

Provide only the value of recorded AUC(0-t) for COc1cc(OC)cc(N2CCN(C(=O)Nc3nc4cc(F)ccc4nc3OC)CC2)c1 1030 ng·h/mL
